Give Fab-liposome binding strength, % of control for every item shown.
# system.name: T1, Recombinant, Human EphA2 with C-terminal hexahistidine appended (human, UniProt P29317 25-534)
# T1 construct: Captured on anti-His5 sensors; also called his-tagged recombinant, human EphA
# assay: BLI (Octet Red96), EphA2-His on anti-His5 sensors, doxorubicin liposomes with inserted Fab-PEG-DSPE conjugate at 25 uM phospholipid, slope of association curve 3-20 s relative to Fab 11 liposomes

Some binders with known Fab-liposome binding strength, % of control results, for comparison:
anti-EphA2 Fab 19 (IgG1 G44L, H172F, F174C, C233S heavy chain; lambda G100L, T162L, S174V, S176C, C214S light chain), Fab-PEG-DSPE conjugate (Fab, V domains shown, mal-PEG(2000)-DSPE linker conjugated to the C-terminal cysteine of the heavy chain (Cys in DKTHTCAA)) VH: QVQLVQSGGGLVQPGGSLRLSCAASGFTFSSYAMHWVRQAPGKLLEWVTVISPDGHNTYYADSVKGRFTISRDNSKNTLYLQMNSLRAEDTAVYYCARASVGATGPFDIWGQGTLVTVSS VL: SSELTQPPSVSVAPGQTVTITCQGDSLRSYYASWYQQKPGTAPKLLIYGENNRPSGVPDRFSGSSSGTSASLTITGAQAEDEADYYCNSRDSSGTHLTVFGLGTKLTVLG : 83.3 % of control
anti-EphA2 Fab 15 (IgG1 H172E, F174C, C233S heavy chain; lambda T162D, S176C, C214S light chain), Fab-PEG-DSPE conjugate (Fab, V domains shown, mal-PEG(2000)-DSPE linker conjugated to the C-terminal cysteine of the heavy chain (Cys in DKTHTCAA)) VH: QVQLVQSGGGLVQPGGSLRLSCAASGFTFSSYAMHWVRQAPGKGLEWVTVISPDGHNTYYADSVKGRFTISRDNSKNTLYLQMNSLRAEDTAVYYCARASVGATGPFDIWGQGTLVTVSS VL: SSELTQPPSVSVAPGQTVTITCQGDSLRSYYASWYQQKPGTAPKLLIYGENNRPSGVPDRFSGSSSGTSASLTITGAQAEDEADYYCNSRDSSGTHLTVFGGGTKLTVLG : 102 % of control

Shift focus to the following entry.
Query :: Requested field: Fab-liposome binding strength, % of control. Item: anti-EphA2 Fab 13 (IgG1 F174C, C233S heavy chain; lambda S176C, C214S light chain), Fab-PEG-DSPE conjugate (Fab, V domains shown, mal-PEG(2000)-DSPE linker conjugated to the C-terminal cysteine of the heavy chain (Cys in DKTHTCAA)) VH: QVQLVQSGGGLVQPGGSLRLSCAASGFTFSSYAMHWVRQAPGKGLEWVTVISPDGHNTYYADSVKGRFTISRDNSKNTLYLQMNSLRAEDTAVYYCARASVGATGPFDIWGQGTLVTVSS VL: SSELTQPPSVSVAPGQTVTITCQGDSLRSYYASWYQQKPGTAPKLLIYGENNRPSGVPDRFSGSSSGTSASLTITGAQAEDEADYYCNSRDSSGTHLTVFGGGTKLTVLG
Result :: 96.5 % of control
